pIC50 overview
Tested on: MOLM-13 cells
ASSAY METHOD TEXT: Cell viability assay (CellTiter-Glo) in MOLM-13 cells, alone or with gilteritinib
Format: cell-based
ASSAY CONDITIONS: Homo sapiens, MOLM-13, 72 h, MOLM-13 cells, compound alone (without gilteritinib), three days, CellTiter-Glo; read-out: MOLM-13 IC50
pIC50: −log10 of the molar value.

Here are 2 molecules together with their reported answers.
>  <MOLECULE>
O=C1CCC(N2Cc3cc(NC(=O)c4cccc(N5CCC(n6cc(-c7cnc8ccccc8n7)cn6)CC5)c4)ccc3C2=O)C(=O)N1 (stereo not drawn)

>  <SYSTEM UNDER TEST>
MOLM-13 cells

>  <pIC50>
> 8.00

$$$$
>  <MOLECULE>
CC(CCCNc1ccc2c(c1)C(=O)N(C1CCC(=O)NC1=O)C2=O)C(=O)N1CCC(n2cc(-c3cnc4ccccc4n3)cn2)CC1 (stereo not drawn)

>  <SYSTEM UNDER TEST>
MOLM-13 cells

>  <pIC50>
< 6.00

$$$$

Could you now look at the following molecule, please?
Input: // Input: O=C1CCC(N2C(=O)c3ccc(NC[C@H]4C[C@H](n5cc(-c6cccc(NC7CCOCC7)n6)c(C6CC6)n5)C4)cc3C2=O)C(=O)N1 (stereo partly drawn) . Output its pIC50 only.
Output: 7.00 to 8.00

----------
We begin with a simple list: items and their reported IC50.
System: MOLM-13 cells
ASSAY METHOD TEXT: Cell viability assay (CellTiter-Glo) in MOLM-13 cells, alone or with gilteritinib
Type: cell-based
ASSAY CONDITIONS: Homo sapiens, MOLM-13, 72 h, MOLM-13 cells, compound alone (without gilteritinib), three days, CellTiter-Glo; read-out: MOLM-13 IC50

>  <MOLECULE>
Cc1ccccc1-c1cnn(CCCCCCNc2ccc3c(c2)C(=O)N(C2CCC(=O)NC2=O)C3=O)c1 (stereo not drawn) [GS-516]

>  <ATTRIBUTE MEASURED>
IC50

>  <RECORDED MEASUREMENT>
> 1000 nM

$$$$

Input: Name the recorded IC50 of the molecule listed here: O=C1CCC(N2C(=O)c3ccc(NCCCCCCn4cc(-c5cnc6cccc(F)c6n5)cn4)cc3C2=O)C(=O)N1 (stereo not drawn) [GS-377]
Output: > 1000 nM

Input: Look up and report measured IC50 for this entry: O=C1CCC(N2C(=O)c3ccc(NCCCCC(=O)N4CCC(n5cc(-c6cnc7ccc(C8=CCNCC8)cc7n6)cn5)CC4)cc3C2=O)C(=O)N1 (stereo not drawn) [GS-544]
Output: 100 to 1000 nM

Input: // Input: O=C1CCC(N2C(=O)c3ccc(NCCCC(F)(F)C(=O)N4CCC(n5cc(-c6cnc7ccccc7n6)cn5)CC4)cc3C2=O)C(=O)N1 (stereo not drawn) [GS-145] . Output its IC50 only.
Output: 100 to 1000 nM

Input: Retrieve IC50 measured for O=C1CCC(N2C(=O)c3ccc(NCCC[C@H]4C[C@H](n5cc(-c6nccc7cnccc67)c(C6CC6)n5)C4)cc3C2=O)C(=O)N1 (stereo partly drawn) [GS-628] and print it.
Output: > 1000 nM

Input: Give a short answer stating reported IC50 for O=C1CCC(N2Cc3cc(Nc4ccnc(Nc5ccc6c(c5)CC(N5CCC(n7cc(-c8cnc9cccc(Br)c9n8)cn7)CC5)C6)n4)ccc3C2=O)C(=O)N1 (stereo not drawn) [GS-072] .
Output: > 1000 nM
